This collection of values is drawn from patent US8263608B2.

biological target: MC1-R (Homo sapiens); construct: or, for MC1-R, in HBL cells; endogenous in cells; host or cells: HBL cells; test: Assay for agonist activity: intracellular cAMP accumulation (functional assay); assay type: cell-based; conditions: functional assays at MC1-R
measured_endpoint: functional status at MC1-R

molecule	target_desc	result
COc1ccc(C[C@@H](NC(=O)CCc2c[nH]cn2)C(=O)N2CCC3(CC2)C(=O)N(Cc2ccccc2)CN3c2ccccc2)cc1 [Example 153]	MC1-R (Homo sapiens)	partial agonist
CCCCN1CN(c2ccccc2)C2(CCN(C(=O)[C@@H](Cc3ccc(OC)cc3)NC(=O)[C@@H](N)Cc3cncn3C)CC2)C1=O [Example 142]	MC1-R (Homo sapiens)	partial agonist
COc1ccc(C[C@@H](NC(=O)CCc2cnc[nH]2)C(=O)N2CCC3(CC2)C(=O)N(C2CCC2)CN3c2ccccc2)cc1 [Example 159]	MC1-R (Homo sapiens)	partial agonist

###

target: MC1-R (Homo sapiens); construct: or, for MC1-R, in HBL cells; endogenous in cells; host or cells: HBL cells; assay: Assay for agonist activity: intracellular cAMP accumulation (functional assay); assay type: cell-based; details: functional assays at MC1-R; maximum efficacy compared to reference agonist NDP-α-MSH
measured_endpoint: Emax (%)

smi	Emax (%)
COC(=O)CN1CN(c2ccccc2)C2(CCN(C(=O)[C@@H](Cc3ccc(OC)cc3)NC(=O)CCCCN)CC2)C1=O	44
CCN1CN(c2ccccc2)C2(CCN(C(=O)[C@@H](Cc3ccc(OC)cc3)NC(=O)[C@@H](N)Cc3cncn3C)CC2)C1=O	42
COc1ccc(C[C@@H](NC(=O)CCc2c[nH]cn2)C(=O)N2CCC3(CC2)C(=O)N(Cc2ccccc2Cl)CN3c2ccccc2)cc1	50

###

target: MC1-R (Homo sapiens, UniProt Q01726); construct: or, for MC1-R, in HBL cells; endogenous in cells; host or cells: HBL cells; experiment: Assay for agonist activity: intracellular cAMP accumulation (functional assay); format: cell-based; details: functional assays at MC1-R
Sequence (Q01726 whole entry): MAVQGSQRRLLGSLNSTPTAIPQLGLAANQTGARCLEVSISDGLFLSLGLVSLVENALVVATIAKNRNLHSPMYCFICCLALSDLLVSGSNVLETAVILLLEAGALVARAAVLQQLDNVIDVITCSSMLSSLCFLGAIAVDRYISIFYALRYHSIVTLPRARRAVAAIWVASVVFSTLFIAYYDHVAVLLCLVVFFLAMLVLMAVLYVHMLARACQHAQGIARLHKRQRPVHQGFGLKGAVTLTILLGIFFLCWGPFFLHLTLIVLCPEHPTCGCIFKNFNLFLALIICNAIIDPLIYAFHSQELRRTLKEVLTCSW
measured_endpoint: functional status at MC1-R

# example entries with known answers
smi	target_desc	functional status at MC1-R
COC(=O)CN1CN(c2ccccc2)C2(CCN(C(=O)[C@@H](Cc3ccc(OC)cc3)NC(=O)CCc3cnc[nH]3)CC2)C1=O	MC1-R (Homo sapiens, UniProt Q01726)	partial agonist
COc1ccc(C[C@@H](NC(=O)CCc2c[nH]cn2)C(=O)N2CCC3(CC2)C(=O)N(Cc2cccc(Cl)c2)CN3c2ccccc2)cc1	MC1-R (Homo sapiens, UniProt Q01726)	partial agonist
COc1ccc(C[C@@H](NC(=O)CCc2cnc[nH]2)C(=O)N2CCC3(CC2)C(=O)N(C2CCCC2)CN3c2ccccc2)cc1	MC1-R (Homo sapiens, UniProt Q01726)	partial agonist
CCN1CN(c2ccccc2)C2(CCN(C(=O)[C@@H](Cc3ccc(OC)cc3)NC(=O)[C@@H](N)Cc3cncn3C)CC2)C1=O	MC1-R (Homo sapiens, UniProt Q01726)	partial agonist

Exercise: Please look up its functional status at MC1-R: `COc1ccc(C[C@@H](NC(=O)[C@@H](N)Cc2cncn2C)C(=O)N2CCC3(CC2)C(=O)N(C2CCCC2)CN3c2ccccc2)cc1`
Solution: partial agonist

Exercise: Please look up its functional status at MC1-R: `COc1ccc(C[C@@H](NC(=O)[C@@H](N)Cc2cncn2C)C(=O)N2CCC3(CC2)C(=O)N(Cc2ccccc2)CN3c2ccccc2)cc1`
Solution: partial agonist

Exercise: Please look up its functional status at MC1-R: `COc1ccc(C[C@@H](NC(=O)CCc2c[nH]cn2)C(=O)N2CCC3(CC2)C(=O)N(Cc2ccccc2Cl)CN3c2ccccc2)cc1`
Solution: partial agonist

Exercise: Please look up its functional status at MC1-R: `COc1ccc(C[C@@H](NC(=O)CCc2c[nH]cn2)C(=O)N2CCC3(CC2)C(=O)N(Cc2ccc(Cl)cc2)CN3c2ccccc2)cc1`
Solution: partial agonist

Exercise: Please look up its functional status at MC1-R: `COc1ccc(C[C@@H](NC(=O)CCc2cnc[nH]2)C(=O)N2CCC3(CC2)C(=O)N(C(C)C)CN3c2ccccc2)cc1`
Solution: partial agonist

Exercise: Please look up its functional status at MC1-R: `COc1ccc(C[C@@H](NC(=O)CCc2c[nH]cn2)C(=O)N2CCC3(CC2)C(=O)N(Cc2cccnc2)CN3c2ccccc2)cc1`
Solution: partial agonist
